Listing of recorded pIC50 by entry.
Molecular target: human renin (Homo sapiens)
Sequence (P00797 67-406): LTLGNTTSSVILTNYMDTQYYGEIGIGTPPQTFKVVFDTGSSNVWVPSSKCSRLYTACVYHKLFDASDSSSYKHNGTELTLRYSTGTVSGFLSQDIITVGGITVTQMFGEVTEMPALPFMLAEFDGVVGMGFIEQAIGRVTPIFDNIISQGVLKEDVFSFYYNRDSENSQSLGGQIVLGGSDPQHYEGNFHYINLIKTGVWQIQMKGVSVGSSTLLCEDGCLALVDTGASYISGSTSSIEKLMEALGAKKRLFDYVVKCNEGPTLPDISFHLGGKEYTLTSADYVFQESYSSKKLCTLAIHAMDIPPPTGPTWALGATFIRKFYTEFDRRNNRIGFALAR
Just the number, please; pIC50 means minus log10 of the concentration in mol/L.

CCCCCC(=O)[C@@H](C[C@H](O)[C@H](CC1CCCCC1)NC(=O)[C@H](Cc1c[nH]cn1)NC(=O)[C@@H](CC(=O)C(C)(C)C)Cc1ccccc1)C(C)C [C]	8.15
CCCCNC(=O)C[C@@H](C[C@H](O)[C@H](CC1CCCCC1)NC(=O)[C@H](Cc1c[nH]cn1)NC(=O)[C@H](Cc1ccccc1)NC(=O)OC(C)(C)C)C(C)C [B]	8.05
CCC(=O)OCC[C@@H](C[C@H](O)[C@H](CC1CCCCC1)NC(=O)[C@H](Cc1c[nH]cn1)NC(=O)[C@H](Cc1ccccc1)NC(=O)OC(C)(C)C)C(C)C [E]	8.05
CC(C)C(CC(O)C(CC1CCCCC1)NC(=O)C(Cc1c[nH]cn1)NC(=O)C(Cc1ccccc1)NC(=O)C1CCCN1C(=O)OC(C)(C)C)C(O)CNCc1ccccn1 (racemic) [I]	8.10

In the following, a different compound is considered.
Query: Param readout= pIC50; system= human renin (Homo sapiens); entry= CCCCNC(=O)C[C@@H](C[C@H](O)[C@H](CC1CCCCC1)NC(=O)[C@H](Cc1c[nH]cn1)NC(=O)[C@@H](CC(=O)C(C)(C)C)Cc1ccccc1)C(C)C [A] ; returns value.
Reply: 8.52
